Assay: Plasma pharmacokinetics of BIBF 1120 (HPLC-MS/MS)
Format: in vivo, human
Settings: male, human, plasma, po, 250 mg, oral 250 mg BID; treatment cycle 1; read-out: tmax, median and range
Measured quantity: Tmax (h)
Number only, in h; omit the unit.

What does the record list as Tmax for COC(=O)c1ccc2c(c1)NC(=O)/C2=C(\Nc1ccc(N(C)C(=O)CN2CCN(C)CC2)cc1)c1ccccc1 ?
3

====

Test: Plasma pharmacokinetics of BIBF 1120 (HPLC-MS/MS)
Format: in vivo, human
Conditions: male, human, plasma, po, 250 mg, oral 250 mg BID; day 2 of treatment cycle 1; with docetaxel; read-out: Cmax, gMean (gCV%)
Measured quantity: Cmax (ng/mL)
Just the number in ng/mL, nothing appended.

# get_value(readout='Cmax', item= COC(=O)c1ccc2c(c1)NC(=O)/C2=C(\Nc1ccc(N(C)C(=O)CN2CCN(C)CC2)cc1)c1ccccc1 )
65
